Measured pEC50 values are reported for all entries that follow.
system_name: Human GPR40 (Homo sapiens)
Sequence (O14842 whole entry): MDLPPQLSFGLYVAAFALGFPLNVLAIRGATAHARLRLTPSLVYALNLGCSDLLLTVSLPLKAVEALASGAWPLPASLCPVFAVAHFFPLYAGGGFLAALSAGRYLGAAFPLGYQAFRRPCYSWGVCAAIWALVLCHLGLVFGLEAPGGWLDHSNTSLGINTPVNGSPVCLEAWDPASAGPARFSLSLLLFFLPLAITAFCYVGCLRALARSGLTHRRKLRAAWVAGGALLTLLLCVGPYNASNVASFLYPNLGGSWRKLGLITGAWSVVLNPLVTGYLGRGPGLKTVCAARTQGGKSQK
assay_procedure: FLIPR assay (agonist-induced calcium mobilization)
Type: cell-based
Design: expressed in transfected cells
test_parameters: GPR40/CHO NFAT BLA cells
pEC50: −log10 of the molar value.

{"molecular_string": "CS(=O)(=O)CCCOc1ccc(-c2cc(COc3cc4c(cn3)[C@H]3[C@@H](C4)[C@@H]3C(=O)O)c(F)cc2C(F)(F)F)c(F)c1", "pEC50": 8.04}
{"molecular_string": "CC(C)(O)CCOc1ncc(-c2cc(COc3cc4c(cn3)[C@H]3[C@@H](C4)[C@@H]3C(=O)O)c(F)cc2C(F)(F)F)cc1F", "pEC50": 8.31}
{"molecular_string": "CC(C)(O)CCOc1ccc(-c2cc(COc3cc4c(cn3)[C@H]3[C@@H](C4)[C@@H]3C(=O)O)c(F)cc2C(F)F)cc1F", "pEC50": 7.78}
{"molecular_string": "CC(C)(O)CCOc1cc(F)c(-c2cc(COc3cc4c(cn3)[C@H]3[C@@H](C4)[C@@H]3C(=O)O)c(F)cc2C(F)(F)F)c(F)c1", "pEC50": 8.19}
{"molecular_string": "CC(C)(O)CCOc1ccc(-c2cc(COc3cc4c(cn3)[C@H]3[C@@H](C4)[C@@H]3C(=O)O)c(F)cc2C(F)(F)F)c(C(F)F)c1", "pEC50": 8.02}
{"molecular_string": "CC(C)(O)CCOc1ccc(-c2cc(COc3cc4c(cn3)[C@H]3[C@@H](C4)[C@@H]3C(=O)O)c(F)cc2C(F)(F)F)c(F)c1", "pEC50": 7.95}
